Assayed system: PI3Kα H1047R (T47D cells) (Homo sapiens, UniProt P42336, H1047R)
Construct: endogenous in cells; host or cells: T47D cells
Sequence (P42336 whole entry H1047R): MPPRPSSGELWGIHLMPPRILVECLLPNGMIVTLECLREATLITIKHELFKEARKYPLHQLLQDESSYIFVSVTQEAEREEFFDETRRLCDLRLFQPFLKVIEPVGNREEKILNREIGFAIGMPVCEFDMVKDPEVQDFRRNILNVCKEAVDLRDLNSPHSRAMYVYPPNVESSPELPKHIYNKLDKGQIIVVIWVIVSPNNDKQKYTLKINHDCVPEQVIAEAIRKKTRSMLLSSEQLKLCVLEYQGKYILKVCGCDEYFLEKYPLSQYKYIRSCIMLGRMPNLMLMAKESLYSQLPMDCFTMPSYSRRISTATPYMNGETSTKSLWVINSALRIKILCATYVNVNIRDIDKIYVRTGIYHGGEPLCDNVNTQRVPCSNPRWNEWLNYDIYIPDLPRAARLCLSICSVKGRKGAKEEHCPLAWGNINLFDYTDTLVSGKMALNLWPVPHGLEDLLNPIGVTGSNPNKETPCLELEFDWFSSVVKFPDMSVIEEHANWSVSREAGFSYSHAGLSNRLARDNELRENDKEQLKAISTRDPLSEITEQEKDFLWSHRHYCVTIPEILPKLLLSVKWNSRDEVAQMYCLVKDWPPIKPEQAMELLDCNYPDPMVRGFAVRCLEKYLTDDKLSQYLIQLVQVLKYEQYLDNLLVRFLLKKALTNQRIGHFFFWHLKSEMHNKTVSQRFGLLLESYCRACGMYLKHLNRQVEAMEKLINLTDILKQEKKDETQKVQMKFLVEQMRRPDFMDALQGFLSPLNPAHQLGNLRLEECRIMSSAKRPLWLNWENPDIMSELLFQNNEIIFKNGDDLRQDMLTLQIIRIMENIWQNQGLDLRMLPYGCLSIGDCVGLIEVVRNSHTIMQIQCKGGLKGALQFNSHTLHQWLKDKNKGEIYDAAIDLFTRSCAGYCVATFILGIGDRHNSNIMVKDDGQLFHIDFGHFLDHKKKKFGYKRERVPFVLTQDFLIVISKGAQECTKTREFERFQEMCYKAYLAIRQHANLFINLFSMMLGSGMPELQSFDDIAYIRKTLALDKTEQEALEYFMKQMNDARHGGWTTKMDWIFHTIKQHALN
Sequence (P27986 whole entry partner): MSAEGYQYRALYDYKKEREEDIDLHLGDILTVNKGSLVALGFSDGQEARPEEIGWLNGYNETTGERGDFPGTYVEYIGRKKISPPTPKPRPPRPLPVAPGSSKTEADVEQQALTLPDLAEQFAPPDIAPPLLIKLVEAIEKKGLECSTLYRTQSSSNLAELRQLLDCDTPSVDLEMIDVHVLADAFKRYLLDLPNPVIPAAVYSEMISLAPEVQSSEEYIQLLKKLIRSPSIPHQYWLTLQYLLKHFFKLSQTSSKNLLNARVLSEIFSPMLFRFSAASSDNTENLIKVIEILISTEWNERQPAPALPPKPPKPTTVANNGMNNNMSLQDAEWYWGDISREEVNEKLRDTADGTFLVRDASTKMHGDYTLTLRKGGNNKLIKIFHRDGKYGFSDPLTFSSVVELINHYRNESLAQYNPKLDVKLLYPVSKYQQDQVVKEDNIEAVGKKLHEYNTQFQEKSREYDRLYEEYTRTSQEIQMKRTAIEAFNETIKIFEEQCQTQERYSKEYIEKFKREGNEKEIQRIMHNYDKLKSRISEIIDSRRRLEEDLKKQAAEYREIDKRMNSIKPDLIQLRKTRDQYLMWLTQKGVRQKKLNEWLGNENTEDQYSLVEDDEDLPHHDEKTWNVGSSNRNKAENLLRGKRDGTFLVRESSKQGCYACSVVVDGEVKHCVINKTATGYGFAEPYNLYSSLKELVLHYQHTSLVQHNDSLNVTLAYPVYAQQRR
Test method notes: PI3Kα cellular assay: pAKT HTRF in T47D cells after EGF stimulation
Assay type: cell-based
Condition set: selectivity T47D (H1047R) over SKBR3 (WT), pAKT HTRF
Measured endpoint: T47D pAKT S473 HTRF IC50 (H1047R): T47D (H1047R) selectivity over SKBR3 (WT)

Answered cases to consult:
| Molecule | Reported value |
| --- | --- |
| Cc1cc([C@@H](C)Nc2ccccc2-c2ccnnc2)c2nc(-c3ccc4c(C)nn(C5CC5)c4c3)c(C)c(=O)n2c1 | C (C denotes ≤5-fold) |
| Cc1cc(C(C)Nc2ccc(F)cc2C(=O)O)c2nc(-c3cccc(F)c3)c(C)c(=O)n2c1 (centres unmarked) | A (A denotes >20-fold) |
| Cc1cc([C@@H](C)Nc2ccccc2C(=O)O)c2nc([C@@H]3CCCOC3)c(C)c(=O)n2c1 | A (A denotes >20-fold) |
| Cc1cc([C@H](C)Nc2ccccc2C(=O)O)c2nc([C@H]3CCCOC3)c(C)c(=O)n2c1 | C (C denotes ≤5-fold) |
| Cc1cc([C@@H](C)Nc2ccccc2S(=O)(=O)O)c2nc(-c3ccc(C4CC4)cc3)c(C3CC3)c(=O)n2c1 | A (A denotes >20-fold) |
| CNC1=NC2C=C(c3cc(=O)n4cc(C)cc(C(C)Nc5ccccc5C(=O)O)c4n3)C=CC2=C1 (centres unmarked) | A (A denotes >20-fold) |
| Cc1cc([C@@H](C)Nc2ccccc2C(=O)O)c2nc(-c3ccc4sc(=O)[nH]c4c3)cc(=O)n2c1 (single isomer, unassigned) | A (A denotes >20-fold) |
| Cc1cc([C@H](C)Nc2cc(F)cc(F)c2)c2nc(N3CCOCC3)cc(=O)n2c1 | C (C denotes ≤5-fold) |
| Cc1cc([C@@H](C)Nc2ccccc2-c2ccnnc2)c2nc(-c3ccc4c(C)cn(C)c4c3)c(C)c(=O)n2c1 | C (C denotes ≤5-fold) |
| Cc1cc([C@H](C)Nc2ccccc2C(=O)O)c2nc(N3Cc4ccccc4C3)cc(=O)n2c1 (single isomer, unassigned) [Compound 393] | A (A denotes >20-fold) |

Fill in the blank: the reported T47D pAKT S473 HTRF IC50 (H1047R): T47D (H1047R) selectivity over SKBR3 (WT) of CCC(Nc1ccccc1S(N)(=O)=O)c1cc(C)cn2c(=O)cc(N3CCOCC3)nc12 (centres unmarked) is ____. C (C denotes ≤5-fold)

Can you share its T47D pAKT S473 HTRF IC50 (H1047R): T47D (H1047R) selectivity over SKBR3 (WT)? I mean this molecule: Cc1cc([C@H](C)Nc2ccccc2-n2nn[nH]c2=O)c2nc(N3CCOCC3)cc(=O)n2c1 C (C denotes ≤5-fold)

====

Assayed system: PI3Kα H1047R (T47D cells) (Homo sapiens, UniProt P42336, H1047R)
Construct: endogenous in cells; host or cells: T47D cells
Test method notes: PI3Kα cellular assay: pAKT HTRF in T47D cells after EGF stimulation
Assay type: cell-based
Condition set: selectivity T47D (H1047R) over SKBR3 (WT), pAKT HTRF
Measured endpoint: T47D pAKT S473 HTRF IC50 (H1047R): T47D (H1047R) selectivity over SKBR3 (WT)

Consider the reported T47D pAKT S473 HTRF IC50 (H1047R): T47D (H1047R) selectivity over SKBR3 (WT) for these molecules:
| Molecule | Reported value |
| --- | --- |
| Cc1cc([C@@H](C)Nc2ccccc2C(=O)O)c2nc(-c3ccc4nc(NC(=O)C5CC5)nn4c3)cc(=O)n2c1 [Compound 520] | C (C denotes ≤5-fold) |
| Cc1cc(C(C)Nc2ccccc2S(N)(=O)=O)c2nc(-c3ccnc(C4CC4)c3)c(C)c(=O)n2c1 (stereo not drawn) [Compound 1096] | A (A denotes >20-fold) |
| Cc1cc(C(C)Nc2ccccc2C(N)=O)c2nc(-c3ccc(F)c(C#N)c3)c(C)c(=O)n2c1 (stereo not drawn) [Compound 1092] | A (A denotes >20-fold) |
| Cc1cc([C@H](C)Nc2ccnnc2C(=O)O)c2nc(N3CCOCC3)cc(=O)n2c1 [Compound 378] | C (C denotes ≤5-fold) |

What does the data say about its T47D pAKT S473 HTRF IC50 (H1047R): T47D (H1047R) selectivity over SKBR3 (WT)? Entry: Cc1cc([C@@H](C)Nc2ccccc2C(N)=O)c2nc(N3CCOCC3)cc(=O)n2c1 [Compound 146] C (C denotes ≤5-fold)

# T47D pAKT S473 HTRF IC50 (H1047R): T47D (H1047R) selectivity over SKBR3 (WT) lookup, item Cc1cc([C@H](C)Nc2ccccc2S(N)(=O)=O)c2nc([C@@H]3CCCN(CC(F)F)C3)c(C)c(=O)n2c1 [Compound 1311] C (C denotes ≤5-fold)

Using the record for Cc1cc(C(C)Nc2ccccc2C(=O)O)c2nc(-c3ccc(C4CCN(C(=O)C5CC5)CC4)c(F)c3)c(C)c(=O)n2c1 (stereo not drawn) [Compound 1300] , report its T47D pAKT S473 HTRF IC50 (H1047R): T47D (H1047R) selectivity over SKBR3 (WT). A (A denotes >20-fold)

Request the reported T47D pAKT S473 HTRF IC50 (H1047R): T47D (H1047R) selectivity over SKBR3 (WT) associated with Cc1cc(C(C)Nc2ccccc2-c2ccnnc2)c2nc(-c3ccc4c(C)nn(C5CC5)c4c3)c(C)c(=O)n2c1 (stereo not drawn) [Compound 1127] C (C denotes ≤5-fold)

Give the measured T47D pAKT S473 HTRF IC50 (H1047R): T47D (H1047R) selectivity over SKBR3 (WT) of Cc1cc([C@@H](C)Nc2ccccc2S(N)(=O)=O)c2nc(-c3ccnc(C4CC4)c3)c(C)c(=O)n2c1 [Compound 1095] . C (C denotes ≤5-fold)
